# Tested on: SF-295
# PROCEDURE TEXT: NCI tumour cell line growth inhibition, 48 h
Activity calls are given as the source filed them. Rule as the data show it: active = GI50 up to about 1.1 µM and inactive = higher.
GI50 listing for selected compounds.
MEASURED PARAMETER: GI50

INSERT INTO results (compound, reported_result) VALUES
  ('CNc1nc2c(C)ccc3nc(N(C)C)[nH]c3c-2n1', '55.5 µM (inactive)'),
  ('c1ccc(SC2(Sc3ccccc3)CCCC2)cc1', '> 100 µM (inactive)'),
  ('COC(=O)CNC(=O)c1cc(C)cc2c1Oc1c(cc(C)cc1C(=O)NCC(=O)OC)S2', '56.9 µM (inactive)'),
  ('Br/C(=N\N=c1/nn[nH][nH]1)c1ccncc1', '> 100 µM (inactive)'),
  ('CCCCCCCCOC(=O)C12Oc3ccc(-c4ccc5c(c4O)C(=O)C4=C(O)CC(C)C(O)C4(C(=O)OCCCCCCCC)O5)c(O)c3C(=O)C1=C(O)CC(C)C2O (stereo not given)', '8.41 µM (inactive)'),
  ('COc1ccc(C)cc1NC(=S)C#N', '31.9 µM (inactive)'),
  ('CC(=O)NNC1=NN(C(C)=O)C2(S1)C(=O)Nc1ccc(C)cc12 (stereo not given)', '97.9 µM (inactive)'),
  ('N#CC1C2CCC3(CC2CCN1C(=O)c1ccccc1)OCCO3 (stereo not given)', '> 100 µM (inactive)'),
  ('O=C1C(=O)N(c2ccc(Cl)cc2)C(=O)C(=O)C1c1nc2ccccc2s1', '> 100 µM (inactive)'),
  ('CCCN1C(=O)/C(=C\c2ccc(OC)c(OC)c2)S/C1=N\c1ccccc1', '24.2 µM (inactive)');

====

# System: IGROV-1
# PROCEDURE TEXT: NCI tumour cell line growth inhibition, 48 h
Calls of active or inactive are those of the source. Cut-off read from the data, not from the text of the source: active = GI50 up to about 1.1 µM and inactive = higher.
Classes used: Y (active), N (inactive)

INSERT INTO measurements (compound, label) VALUES
  ('CC(C)(C)NCc1cc(Nc2ccnc3cc(Cl)ccc23)cc(-c2ccc(Cl)cc2)c1O', 'N'),
  ('CSC1=C(C)S/C(=C\c2ccc(/C=C3\SC(C)=C(SC)S3)cc2)S1', 'N'),
  ('Cc1ccc2nc(CC(=O)c3ccc4ccccc4c3)c(O)nc2c1', 'N'),
  ('O=C(N/N=C/c1cc(Br)ccc1O)N/N=C/c1cc(Br)ccc1O', 'N'),
  ('[N-]=[N+]=CC(=O)OC1CCOCC1', 'N'),
  ('c1ccc(C(=NNc2nc3ccccc3[nH]2)c2ccccn2)nc1', 'Y'),
  ('N#CC(NNC(=O)Cc1ccccc1)c1ccc([N+](=O)[O-])cc1 (stereo not given)', 'N'),
  ('CC1=C(C(=O)O)N2C(=O)[C@@H](NC(=O)C(c3ccccc3)N3CSC(=S)N(C(C)C)C3)C2SC1 (stereo not given in full)', 'N'),
  ('C/C(=N\Nc1ccc([N+](=O)[O-])cc1[N+](=O)[O-])c1ccc2ccccc2n1', 'N'),
  ('Cc1nn(C(=O)c2ccc(Cl)cc2)c2c1C(c1ccco1)SC(=N)N2 (stereo not given)', 'N');

====

# Test system: SW-620
# PROCEDURE TEXT: NCI tumour cell line growth inhibition, 48 h
Activity calls are given as the source filed them. No stated cut-off is given here; in the data, active = GI50 up to about 1.1 µM and inactive = higher.
GI50 listing for selected compounds.
MEASURED PARAMETER: GI50

INSERT INTO results (compound, target_entity, reported_result) VALUES
  ('Cn1c(-c2cccs2)cc(-c2cccs2)c1-c1ccco1', 'SW-620', '50.5 µM (inactive)'),
  ('CCOC(=O)c1sc(=S)n(-c2ccc(Cl)cc2)c1-n1cc(-c2ccccc2)c(C#N)c1N', 'SW-620', '53 µM (inactive)'),
  ('N#Cc1ccc(C(C2C(=O)NC(=O)NC2=O)C2C(=O)NC(=O)NC2=O)cc1', 'SW-620', '> 100 µM (inactive)'),
  ('Cc1nn(-c2ccccc2)c2nc3c(c(C)nn3-c3ccccc3)c(-c3ccccc3Br)c12', 'SW-620', '> 100 µM (inactive)'),
  ('CO/N=C(\C(=O)N(C)n1cnnc1)c1csc(NC(c2ccccc2)(c2ccccc2)c2ccccc2)n1', 'SW-620', '> 10 µM (inactive)'),
  ('CC(C)N1CSC(=S)N(Cc2ccccc2)C1', 'SW-620', '3.18 µM (inactive)'),
  ('Cc1cccc(C(=O)O)c1C(=O)c1cccc2ccccc12', 'SW-620', '> 100 µM (inactive)'),
  ('Cc1cc(C)nc(NS(=O)(=O)c2ccc(NNc3c4ccccc4nc4c(C(=O)Nc5ccc(S(=O)(=O)Nc6cc(C)on6)cc5)cccc34)cc2)n1', 'SW-620', '39.5 µM (inactive)'),
  ('CC(NC1=NCCO1)c1ccccc1Cl (stereo not given)', 'SW-620', '> 100 µM (inactive)'),
  ('CCCCC1C=Cn2c(=O)oc3c(OC(C)C)c(OC(C)C)c(O)c1c32 (stereo not given)', 'SW-620', '13.9 µM (inactive)');

The reported measurements were obtained from ChEMBL document CHEMBL1201862.
